system: Bacillus cereus; assay: Antimicrobial activity against Bacillus cereus ATCC 4342 selected after 20 daily cycles of drug selection followed by 5 days of nonselective growth by broth microdilution method; assay type: functional; conditions: ATCC 4342, 120 h
Exercise: for every item that follows, state its recorded MIC.
Numbers only, in µg/mL.

Would you please look over these solved cases?
{"molecule": "CN[C@H](CC(C)C)C(=O)N[C@H]1C(=O)N[C@@H](CC(N)=O)C(=O)N[C@H]2C(=O)N[C@H]3C(=O)N[C@H](C(=O)N[C@H](C(=O)O)c4cc(O)cc(O)c4-c4cc3ccc4O)[C@H](O[C@H]3C[C@](C)(N)[C@@H](O)[C@H](C)O3)c3ccc(c(Cl)c3)Oc3cc2cc(c3O[C@@H]2O[C@H](CO)[C@@H](O)[C@H](O)[C@H]2O[C@H]2C[C@](C)(NCc3ccc(-c4ccc(Cl)cc4)cc3)[C@@H](O)[C@H](C)O2)Oc2ccc(cc2Cl)[C@H]1O [ORITAVANCIN]", "test target": "Bacillus cereus", "observed value": 0.008}
{"molecule": "CO[C@H]1/C=C/O[C@@]2(C)Oc3c(C)c(O)c4c(O)c(c(/C=N/N5CCN(C)CC5)c(O)c4c3C2=O)NC(=O)/C(C)=C\\C=C\\[C@H](C)[C@H](O)[C@@H](C)[C@@H](O)[C@@H](C)[C@H](OC(C)=O)[C@@H]1C [RIFAMPIN]", "test target": "Bacillus cereus", "observed value": 0.25}

Would you kindly look at the next entry?
[ask] API: value(readout=MIC, system=Bacillus cereus) for record O=C(O)c1cn(C2CC2)c2cc(N3CCNCC3)c(F)cc2c1=O [CIPROFLOXACIN]
[reply] 0.5

====

test system: Bacillus cereus; test: Antimicrobial activity against Bacillus cereus ATCC 4342 by broth microdilution method; assay type: functional
test readout: MIC (µg/mL)
Answers are plain numbers, in µg/mL.

{"compound": "CN[C@H](CC(C)C)C(=O)N[C@H]1C(=O)N[C@@H](CC(N)=O)C(=O)N[C@H]2C(=O)N[C@H]3C(=O)N[C@H](C(=O)N[C@H](C(=O)O)c4cc(O)cc(O)c4-c4cc3ccc4O)[C@H](O[C@H]3C[C@](C)(N)[C@@H](O)[C@H](C)O3)c3ccc(c(Cl)c3)Oc3cc2cc(c3O[C@@H]2O[C@H](CO)[C@@H](O)[C@H](O)[C@H]2O[C@H]2C[C@](C)(NCc3ccc(-c4ccc(Cl)cc4)cc3)[C@@H](O)[C@H](C)O2)Oc2ccc(cc2Cl)[C@H]1O [ORITAVANCIN]", "units of measure": "µg/mL", "MIC": 0.004}
{"compound": "O=C(O)c1cn(C2CC2)c2cc(N3CCNCC3)c(F)cc2c1=O [CIPROFLOXACIN]", "units of measure": "µg/mL", "MIC": 0.12}
{"compound": "CC1(C)S[C@@H]2[C@H](NC(=O)Cc3ccccc3)C(=O)N2[C@H]1C(=O)O [PENICILLIN G]", "units of measure": "µg/mL", "MIC": 0.008}

[ask] What MIC value was documented for this compound, CO[C@H]1/C=C/O[C@@]2(C)Oc3c(C)c(O)c4c(O)c(c(/C=N/N5CCN(C)CC5)c(O)c4c3C2=O)NC(=O)/C(C)=C\C=C\[C@H](C)[C@H](O)[C@@H](C)[C@@H](O)[C@@H](C)[C@H](OC(C)=O)[C@@H]1C [RIFAMPIN] ?
[reply] 0.03
